- Tested on: Pseudomonas aeruginosa
- Measurement notes: Antibacterial activity against Pseudomonas aeruginosa isolate 1 after 24 hrs by microbroth dilution method
- Type: functional
- Test conditions: isolate 1, 24 h
Assay readout: MIC

INSERT INTO measurements (compound, measured_value) VALUES
  ('O=C(N[C@H](CO)[C@H](O)c1ccc([N+](=O)[O-])cc1)C(Cl)Cl', '512 µg/mL'),
  ('CCCOc1c2cc(C[N+](C)(CCO)CCO)cc1Cc1cc(C[N+](C)(CCO)CCO)cc(c1OCCC)Cc1cc(C[N+](C)(CCO)CCO)cc(c1OCCC)Cc1cc(C[N+](C)(CCO)CCO)cc(c1OCCC)C2.[Cl-].[Cl-].[Cl-].[Cl-]', '256 µg/mL'),
  ('CN(C)[C@@H]1C(O)=C(C(N)=O)C(=O)[C@@]2(O)C(O)=C3C(=O)c4c(O)cccc4[C@@](C)(O)[C@H]3C[C@@H]12', '16 µg/mL'),
  ('CC1COc2c(N3CCN(C)CC3)c(F)cc3c(=O)c(C(=O)O)cn1c23 (centres undefined)', '256 µg/mL');

* * *

- System: Staphylococcus epidermidis
- Measurement notes: Antibacterial activity against methicillin-resistant Staphylococcus epidermidis 57 after 24 hrs by microbroth dilution method
- Type: functional
- Test conditions: Staphylococcus epidermidis, 57, 24 h
Assay readout: MIC (µg/mL)

INSERT INTO results (compound, study_system, measured_value) VALUES
  ('CC1COc2c(N3CCN(C)CC3)c(F)cc3c(=O)c(C(=O)O)cn1c23 (centres undefined)', 'Staphylococcus epidermidis', 512),
  ('O=C(N[C@H](CO)[C@H](O)c1ccc([N+](=O)[O-])cc1)C(Cl)Cl', 'Staphylococcus epidermidis', 8),
  ('CN(C)[C@@H]1C(O)=C(C(N)=O)C(=O)[C@@]2(O)C(O)=C3C(=O)c4c(O)cccc4[C@@](C)(O)[C@H]3C[C@@H]12', 'Staphylococcus epidermidis', 1),
  ('CCCOc1c2cc(C[N+](C)(CCO)CCO)cc1Cc1cc(C[N+](C)(CCO)CCO)cc(c1OCCC)Cc1cc(C[N+](C)(CCO)CCO)cc(c1OCCC)Cc1cc(C[N+](C)(CCO)CCO)cc(c1OCCC)C2.[Cl-].[Cl-].[Cl-].[Cl-]', 'Staphylococcus epidermidis', 4);

* * *

- Test system: Staphylococcus aureus
- Measurement notes: Antibacterial activity against Staphylococcus aureus ATCC 6538 after 24 hrs by microbroth dilution method
- Type: functional
- Test conditions: ATCC 6538, 24 h
Each item that follows carries a reported MIC.
Assay readout: MIC (µg/mL)

INSERT INTO measurements (compound, assay_readout, measured_value) VALUES
  ('O=C(N[C@H](CO)[C@H](O)c1ccc([N+](=O)[O-])cc1)C(Cl)Cl [CHLORAMPHENICOL]', 'MIC', 4),
  ('CC1COc2c(N3CCN(C)CC3)c(F)cc3c(=O)c(C(=O)O)cn1c23 (centres undefined) [OFLOXACIN]', 'MIC', 0.25),
  ('CN(C)[C@@H]1C(O)=C(C(N)=O)C(=O)[C@@]2(O)C(O)=C3C(=O)c4c(O)cccc4[C@@](C)(O)[C@H]3C[C@@H]12 [TETRACYCLINE]', 'MIC', 0.125),
  ('CCCOc1c2cc(C[N+](C)(CCO)CCO)cc1Cc1cc(C[N+](C)(CCO)CCO)cc(c1OCCC)Cc1cc(C[N+](C)(CCO)CCO)cc(c1OCCC)Cc1cc(C[N+](C)(CCO)CCO)cc(c1OCCC)C2.[Cl-].[Cl-].[Cl-].[Cl-]', 'MIC', 4);
